For each entry below, report its GFP response, % of DMSO value.
# protocol.notes: modulators of CIT2-GFP expression in yeast, confirmation, S. cerevisiae, GFP fusion, cherry picks, mother/daughter gates (AID 2274)
# test.parameters: S. cerevisiae CIT2-GFP strain, flow cytometry, 3 h; at 10 µM; stronger effect = higher value
One number for each entry, in %.

A selection of reference data follows.
>>> recorded_value("CS(=O)(=O)Nc1cccc(C2=NN(S(C)(=O)=O)C(c3ccc4c(c3)OCO4)C2)c1 (stereo not given)")
103
>>> recorded_value("CCOC(=O)Cc1csc(NC(=O)c2sc3nc4cc(C)ccc4cc3c2N)n1")
105

Hi there! I need GFP response, % of DMSO for each item below, if you can.
1. Cc1cc(OCc2ccc(C(=O)NN=C3CCCC3)cc2)ccc1Cl
2. COC(=O)c1ccc(/C=N/OCC(=O)NCCc2ccc(OC)c(OC)c2)cc1
3. Cc1nc(C)c(-c2csc(NCCc3ccccc3)n2)s1

Ans:
1: 95.2; 2: 107; 3: 108

###

For each entry below, report its GFP response, % of DMSO value.
# protocol.notes: AGP1-GFP expression modulators, hit retest, confirmation, cell-based, flow cytometry, S. cerevisiae, cherry picks (AID 2273);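 also: median GFP channel fluorescence over the whole cell population gate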
# test.parameters: S. cerevisiae AGP1-GFP strain, 3 h, at 10 µM
One number for each entry, in %.

A selection of reference data follows.
>>> recorded_value("CCCCCCCCn1c(=O)c(C(=O)OCC)c(O)c2ccccc21")
99.3
>>> recorded_value("CCSc1nnc(NC(=O)c2ccccn2)s1")
93.8
>>> recorded_value("COc1ccc(N2CCN(C(=O)C3CCCN(S(=O)(=O)c4ccc(C)cc4)C3)CC2)cc1 (stereo unspecified)")
97.3

Hi there! I need GFP response, % of DMSO for each item below, if you can.
1. Cc1ccn2c(NC(=O)c3ccco3)c(-c3ccccc3)nc2c1
2. Cc1onc(-c2c(Cl)cccc2Cl)c1NC(=O)NNc1c(Cl)cncc1Cl
3. O=C(c1ccccc1[N+](=O)[O-])n1cnc2ccccc21
4. Cc1ccc(C(=O)NNC(=S)NC(=O)COc2ccccc2)cc1
5. O=[N+]([O-])c1cc(S(=O)(=O)C(F)(F)F)ccc1Sc1nc2ccccc2s1

Ans:
94.8
97.2
87.1
134
88.1

Hi there! I need GFP response, % of DMSO for each item below, if you can.
1. CCCC(=O)c1ccc(N2CCN(C(=O)c3ccc(Br)cc3)CC2)c(F)c1
2. N#Cc1ccc(Sc2ccccn2)c([N+](=O)[O-])c1
3. COc1cc(NC(=O)c2cccc([N+](=O)[O-])c2)ccc1NC(=O)c1cc2ccccc2o1

Ans:
1. 100
2. 97.8
3. 100

###

# protocol.notes: AGP1-GFP expression modulators, hit retest, confirmation, cell-based, flow cytometry, S. cerevisiae, cherry picks (AID 2273);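 also: median GFP channel fluorescence over the whole cell population gate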
# test.parameters: S. cerevisiae AGP1-GFP strain, 3 h, at 10 µM
experimental.readout: GFP response, % of DMSO (%)
Give bare numbers, in %.

>>> recorded_value("CCC(=O)Nc1ccc(NC(=O)c2cc3ccccc3o2)c(OC)c1")
100

Hi there! I need GFP response, % of DMSO for each item below, if you can.
1. CC(=O)Nc1cccc(C(=O)/C=C/c2ccc(C)cc2)c1
2. COc1ccc(C2CC(c3ccccc3)=NN2S(=O)(=O)c2ccccc2)cc1 (stereo not drawn)
3. COC(=O)c1cc(NC(=O)c2c(Cl)nc3sccn23)cc(C(=O)OC)c1
4. CCOc1ccc(S(=O)(=O)n2ccnc2C)cc1
5. O=C(c1ccccc1F)N1CCN(c2cccc(C(F)(F)F)c2)CC1
6. O=C(NNC1=NCCC1)c1cccc(Br)c1
7. O=C(OCc1cccc([N+](=O)[O-])c1)c1cnccn1

Ans:
1. 102
2. 104
3. 90
4. 102
5. 106
6. 97.5
7. 97

Hi there! I need GFP response, % of DMSO for each item below, if you can.
1. Cc1nn(Cc2c(Cl)cccc2Cl)c(C)c1NC(=O)c1sc2ccccc2c1Cl
2. CC(=O)OCC(=O)[C@@]1(O)CC[C@H]2[C@@H]3CCC4=CC(=O)CC[C@]4(C)[C@H]3C(=O)C[C@@]21C
3. CCCCCn1c(=O)c(C(=O)OCC)c(O)c2ccccc21
4. CCOC(=O)N/C(N)=N/c1nc2ccccc2s1
5. O=[N+]([O-])c1ccc(S(=O)(=O)c2cccc(C(F)(F)F)c2)nc1
6. CCc1nnc(NC(=O)c2ccc(S(=O)(=O)N(CC(C)C)CC(C)C)cc2)o1
7. Cc1ccc(NN2C(=O)C=C(c3ccc(Cl)cc3)C2=O)cc1

Ans:
1. 108
2. 100
3. 90
4. 95
5. 122
6. 100
7. 91.3

###

# protocol.notes: LAP4-GFP expression modulators in yeast, confirmation, cell-based, cherry picks, flow cytometry, mother/daughter gates (AID 2271);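 also: ratio of sample to DMSO plate mean so 100% equals DMSO level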
# test.parameters: S. cerevisiae LAP4-GFP strain, 3 h, measured here: mother cell gate response, at 10 µM, stronger effect = higher value, 100 means same as DMSO control
experimental.readout: GFP response relative to DMSO (%)
Give bare numbers, in %.

>>> recorded_value("CCOc1ccc2nc(SCC(=O)NCC3CCCO3)c(C#N)cc2c1 (stereo not given)")
101
>>> recorded_value("COc1ccc(C2CC(c3c(-c4ccccc4)c4cc(Cl)ccc4[nH]c3=O)=NN2S(C)(=O)=O)cc1 (stereo not given)")
97.2
>>> recorded_value("O=C(NC(c1ccccc1)C(Cl)Cl)c1ccccc1 (stereo not given)")
93.4
>>> recorded_value("Cc1cccc(CS(=O)(=O)c2ncc(Cl)c(C(=O)NCc3ccc4c(c3)OCO4)n2)c1")
91.1
>>> recorded_value("Oc1ccc(N=Nc2ccccc2)o1")
173

Hi there! I need GFP response relative to DMSO for each item below, if you can.
1. O=C1c2cccc3c([N+](=O)[O-])ccc(c23)C(=O)N1CCc1ccccn1
2. O=C(O)CCc1ccc(-c2ccccc2)o1
3. O=C(CS(=O)c1ccccc1[N+](=O)[O-])Oc1ccc(Br)cc1 (stereo not given)
4. Cc1ccc(NC(=O)COc2ccc(Br)cc2C)cc1
5. Cc1ccc(N(C(=O)CCCC(=O)Nc2ccccn2)C(C(=O)NC2CCCC2)c2ccc(O)cc2)cc1C (stereo not given)
6. CCOc1ccccc1N1CCN(C(=O)c2cccc(-c3ccc(O)cc3)c2)CC1
7. Cc1ccccc1NC(=O)CC1SC(=O)N(c2ccccc2)C1=O (stereo not given)

Ans:
156
138
164
104
98.3
102
133

###

# protocol.notes: modulators of LAP4-GFP expression in yeast, primary screen, S. cerevisiae, multiplex flow cytometry (AID 1873)
# test.parameters: 3 h, at 10 µM, stronger effect = higher value
Inconclusive results are not listed.
experimental.readout: GFP response vs DMSO (%)
Give bare numbers, in %.

Hi there! I need GFP response vs DMSO for each item below, if you can.
1. CCOC(=O)c1cccc(C(=O)OCC)n1
2. Cc1cccc(C)c1NS(=O)(=O)c1ccc(NC(=O)c2ccc(Cl)c([N+](=O)[O-])c2)cc1
3. COc1ccc2oc(=O)c(C(=O)N3CCN(c4ccccc4)CC3)cc2c1
4. C/C=C/Cn1c(SC)nc2c1c(=O)[nH]c(=O)n2C
5. Cc1ccc(-n2ncc3c(Nc4cccc(C(=O)O)c4)ncnc32)cc1
6. O=C(O)CC(O)C(=O)O (stereo unspecified)

Ans:
84.1
72.6
89.3
93.3
105
104

###

# protocol.notes: RPL19A-GFP modulators, yeast TOR pathway, confirmation, cell-based, S. cerevisiae, flow cytometry, cherry picks, mother/daughter gates (AID 2270)
# test.parameters: S. cerevisiae RPL19A-GFP strain, 3 h, measured here: mother cell gate, at 10 µM, stronger effect = lower value, 100 = same GFP as DMSO wells
experimental.readout: GFP response vs DMSO (%)
Give bare numbers, in %.

A selection of reference data follows.
>>> recorded_value("COCc1nnc(NC(=O)c2ccc(S(=O)(=O)N(C)c3ccccc3)cc2)o1")
97.1
>>> recorded_value("CCNC(=O)/C(C#N)=C/c1c(N2CC(C)OC(C)C2)nc2ccccn2c1=O (configuration not stated)")
98.1
>>> recorded_value("CC1CCc2c(C(=O)NCc3cccnc3)csc2C1 (configuration not stated)")
92.7

Hi there! I need GFP response vs DMSO for each item below, if you can.
1. O=C(c1ccccc1Br)N1CCN(c2ccccc2)CC1
2. Oc1c(N=Nc2ccccn2)ccc2ccccc12
3. O=c1[nH]c(=O)n([C@H]2C[C@H](O)[C@@H](CO)O2)cc1F
4. O=[N+]([O-])c1c(Nc2ccccn2)cc(Cl)c2nonc12

Ans:
1. 105
2. 87.3
3. 99.2
4. 129

Hi there! I need GFP response vs DMSO for each item below, if you can.
1. CCN(CC)C(=O)c1ccc2c3c(cccc13)C(=O)N(CCc1ccc(OC)c(OC)c1)C2=O
2. Cc1cc(N2CCC(C)CC2)n2nc(C)c(-c3ccccc3)c2n1
3. Cc1ccc(-c2csc(NC(=O)c3cccc([N+](=O)[O-])c3)n2)cc1
4. Cc1ccc(C=C2C(Cl)=C(Cl)C(Cl)=C2Cl)cc1
5. CCCS(=O)(=O)N1CCC(C(=O)c2cccc(C(F)(F)F)c2)CC1

Ans:
[98.8, 101, 97.5, 97.7, 98.2]

Hi there! I need GFP response vs DMSO for each item below, if you can.
1. CCN1C(=O)/C(=C\C(=O)c2cccs2)c2cc(Br)ccc21
2. NNC(=O)c1ccc(COc2ccc3ccccc3c2)cc1
3. Cc1cc(C)c2c(c1)/C(=C/C(=O)c1ccc(Br)s1)C(=O)N2
4. O=C(Oc1oc(-c2ccco2)nc1C=Nc1ccc(Cl)cc1)c1ccco1

Ans:
1. 97.2
2. 95.7
3. 103
4. 103

Hi there! I need GFP response vs DMSO for each item below, if you can.
1. Cc1nc2ccccc2n2c(O)c(CC(=O)O)cc12
2. O=C(Nc1cc(F)c(Br)cc1F)c1ccc(Cl)cc1
3. COC(=O)c1ccc(/C=C/C(=O)c2ccc(OC)cc2)cc1
4. O=C1c2ccsc2SCCN1Cc1ccc(F)cc1
5. O=C(CCc1ccccc1)NNC(=S)NC(=O)c1ccccc1
6. CCOC(=O)Cc1csc(NC(=O)COc2ccc(N(C)S(=O)(=O)c3cccs3)cc2)n1

Ans:
99.3
87.2
101
100
107
92

Taken from PubChem BioAssay.
